# credit: patent US20230151003A1

measured.target: Met (Homo sapiens)
experiment: Met autophosphorylation ELISA in PC-3 cells
Format: cell-based
Set-up: endogenous in cells; host or cells: PC-3 prostate cancer cells (ATCC #CRL-1435)
condition.parameters: Table 3 Cellular Activities, HGF-stimulated, phospho-Met ELISA, read-out: c-Met IC50
Sequence (P08581 25-1390): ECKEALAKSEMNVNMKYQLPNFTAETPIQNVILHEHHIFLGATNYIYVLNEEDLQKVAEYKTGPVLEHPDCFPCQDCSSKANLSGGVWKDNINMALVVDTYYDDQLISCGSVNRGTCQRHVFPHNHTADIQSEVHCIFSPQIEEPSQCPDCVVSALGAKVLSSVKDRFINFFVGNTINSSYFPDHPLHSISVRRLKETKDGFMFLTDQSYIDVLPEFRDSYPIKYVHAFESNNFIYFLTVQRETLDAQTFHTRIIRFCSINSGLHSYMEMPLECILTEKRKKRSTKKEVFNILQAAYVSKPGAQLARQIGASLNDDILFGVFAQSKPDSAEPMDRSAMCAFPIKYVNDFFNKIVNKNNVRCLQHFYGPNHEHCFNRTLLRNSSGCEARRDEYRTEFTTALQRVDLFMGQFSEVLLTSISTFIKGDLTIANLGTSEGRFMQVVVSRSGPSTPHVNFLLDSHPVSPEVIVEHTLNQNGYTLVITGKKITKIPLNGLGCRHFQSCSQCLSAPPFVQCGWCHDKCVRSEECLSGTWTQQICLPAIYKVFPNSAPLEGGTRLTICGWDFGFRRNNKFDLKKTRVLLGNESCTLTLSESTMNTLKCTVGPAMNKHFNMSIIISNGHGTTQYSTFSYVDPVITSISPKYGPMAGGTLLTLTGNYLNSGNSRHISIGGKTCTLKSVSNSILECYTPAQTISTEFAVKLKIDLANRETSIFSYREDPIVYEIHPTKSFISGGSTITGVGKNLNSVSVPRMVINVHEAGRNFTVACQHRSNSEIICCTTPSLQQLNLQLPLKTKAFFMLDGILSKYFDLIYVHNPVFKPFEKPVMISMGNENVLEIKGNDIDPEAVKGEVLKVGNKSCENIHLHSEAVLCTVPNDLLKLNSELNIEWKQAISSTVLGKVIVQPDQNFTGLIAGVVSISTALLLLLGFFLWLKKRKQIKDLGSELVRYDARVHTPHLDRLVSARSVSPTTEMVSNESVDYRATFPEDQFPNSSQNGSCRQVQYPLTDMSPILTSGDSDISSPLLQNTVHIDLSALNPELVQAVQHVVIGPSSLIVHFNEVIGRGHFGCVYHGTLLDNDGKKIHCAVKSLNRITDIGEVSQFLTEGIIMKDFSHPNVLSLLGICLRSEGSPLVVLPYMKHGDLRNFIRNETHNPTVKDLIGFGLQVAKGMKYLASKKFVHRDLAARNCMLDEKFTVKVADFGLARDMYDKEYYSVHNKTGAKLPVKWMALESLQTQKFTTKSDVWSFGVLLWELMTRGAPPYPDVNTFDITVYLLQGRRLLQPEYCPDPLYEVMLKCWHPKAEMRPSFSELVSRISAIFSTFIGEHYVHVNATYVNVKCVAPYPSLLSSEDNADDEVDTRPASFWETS
quantity.name: IC50

response.value for "COc1cc2nccc(Oc3ccc(NC(=O)c4c(C)ncc(-c5ncc(F)cc5C)c4O)cc3F)c2nc1OC" (field: IC50) = ≤ 100 nM

response.value for "COc1cc2nccc(Oc3ccc(NC(=O)c4c5n(cc(-c6ccc(C)s6)c4=O)CCOC5)cc3F)c2nc1OC" (field: IC50) = ≤ 100 nM

response.value for "COc1cc2nccc(Oc3ccc(NC(=O)c4c(C)nc(C)c(-c5ccc(C(C)C)o5)c4O)cc3F)c2nc1OC" (field: IC50) = ≤ 100 nM

---

measured.target: Met (Homo sapiens, UniProt P08581)
experiment: Human MET kinase assay (HTRF KinEase)
Assay type: biochemical
Parameters: Human MET (residues 956-1390; CarnaBio, 0.1 ng/ well); purchased CarnaBio
condition.parameters: Table 2 Biological Activities, ATP at Km (3.0 μM), read-out: c-Met IC50
Sequence (P08581 956-1390): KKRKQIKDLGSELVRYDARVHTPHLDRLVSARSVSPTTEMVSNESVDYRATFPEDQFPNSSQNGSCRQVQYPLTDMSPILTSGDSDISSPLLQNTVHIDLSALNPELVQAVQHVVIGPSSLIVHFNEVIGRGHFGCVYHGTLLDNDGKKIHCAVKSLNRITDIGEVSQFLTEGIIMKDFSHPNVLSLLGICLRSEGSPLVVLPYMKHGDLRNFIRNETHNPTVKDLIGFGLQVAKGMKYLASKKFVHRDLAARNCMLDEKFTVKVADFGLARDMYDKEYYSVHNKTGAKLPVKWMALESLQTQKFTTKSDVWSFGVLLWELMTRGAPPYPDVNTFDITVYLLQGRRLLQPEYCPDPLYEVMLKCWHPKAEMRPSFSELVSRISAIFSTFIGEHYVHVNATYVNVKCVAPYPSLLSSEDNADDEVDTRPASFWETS
pIC50: −log10 of the molar value.
Each entry below carries its reported pIC50.

COc1ccc2nccc(Oc3ccc(NC(=O)c4ccc(C)n(-c5ccc(F)cn5)c4=O)cc3F)c2c1 [Compound 49]	≥ 7.00
COc1cc2nccc(Oc3ccc(NC(=O)c4cn(C)c(C)c(-c5ccc(F)cn5)c4=O)cc3)c2nc1OC [Compound 86]	≥ 7.00
COc1cnc2c(Oc3ccc(NC(=O)c4c(C)nc(C)c(-c5ccc(F)cn5)c4O)cc3F)ccnc2c1 [Compound 217]	≥ 7.00

response.value for COc1cc2nccc(Oc3ccc(NC(=O)c4cccn(-c5ccc(F)cn5)c4=O)cc3F)c2nc1OC [Compound 42] (field: pIC50) = ≥ 7.00

response.value for COc1cc2nccc(Oc3ccc(NC(=O)c4ccc(C)n(-c5ccncc5)c4=O)cc3F)c2nc1OC [Compound 221] (field: pIC50) = ≥ 7.00

response.value for COc1cc2nccc(Oc3ccc(NC(=O)c4cc(C#N)c(C)n(-c5ccc(F)cn5)c4=O)cc3F)c2nc1OC [Compound 56] (field: pIC50) = ≥ 7.00

response.value for COc1cc2nccc(Oc3ccc(NC(=O)c4cc(C(C)=O)c(C)n(-c5ccc(F)cn5)c4=O)cc3F)c2nc1OC [Compound 59] (field: pIC50) = ≥ 7.00

response.value for COc1cc2nccc(Oc3ccc(NC(=O)c4ccc(C)n(-c5ccc(F)cn5)c4=O)cc3F)c2nc1OC [Compound 43] (field: pIC50) = ≥ 7.00

response.value for COc1cnc2c(Oc3ccc(NC(=O)c4ccc(C)n(-c5ccc(F)cn5)c4=O)cc3F)ccnc2c1 [Compound 45] (field: pIC50) = ≥ 7.00

response.value for COc1cc2nccc(Oc3ccc(NC(=O)c4cnc(C)c(-c5ccc(F)cn5)c4O)cc3F)c2nc1OC [Compound 85] (field: pIC50) = ≥ 7.00

response.value for COc1cc2nccc(Oc3ccc(NC(=O)c4ccc(C)n(-c5ncc(F)cc5C)c4=O)cc3F)c2nc1OC [Compound 51] (field: pIC50) = ≥ 7.00

response.value for COc1cnc2c(Oc3ccc(NC(=O)c4ccc(C)n(-c5ncc(F)cc5C)c4=O)cc3F)ccnc2c1 [Compound 52] (field: pIC50) = ≥ 7.00

response.value for COc1cc2nccc(Oc3ccc(NC(=O)c4c(C)ncc(-c5ccc(F)cn5)c4O)cc3F)c2nc1OC [Compound 68] (field: pIC50) = ≥ 7.00

response.value for COc1cc2nccc(Oc3ccc(NC(=O)c4c(C)nc(C)c(-c5ccc(F)cn5)c4O)cc3F)c2nc1OC [Compound 218] (field: pIC50) = ≥ 7.00

---

measured.target: KDR (Homo sapiens, UniProt P35968)
experiment: KDR autophosphorylation ELISA in HUVEC cells
Format: cell-based
Design: endogenous in cells; host or cells: HUVEC (Lonza #C2519A)
condition.parameters: Table 3 Cellular Activities, VEGF165-stimulated, phospho-KDR ELISA
Sequence (P35968 20-1356): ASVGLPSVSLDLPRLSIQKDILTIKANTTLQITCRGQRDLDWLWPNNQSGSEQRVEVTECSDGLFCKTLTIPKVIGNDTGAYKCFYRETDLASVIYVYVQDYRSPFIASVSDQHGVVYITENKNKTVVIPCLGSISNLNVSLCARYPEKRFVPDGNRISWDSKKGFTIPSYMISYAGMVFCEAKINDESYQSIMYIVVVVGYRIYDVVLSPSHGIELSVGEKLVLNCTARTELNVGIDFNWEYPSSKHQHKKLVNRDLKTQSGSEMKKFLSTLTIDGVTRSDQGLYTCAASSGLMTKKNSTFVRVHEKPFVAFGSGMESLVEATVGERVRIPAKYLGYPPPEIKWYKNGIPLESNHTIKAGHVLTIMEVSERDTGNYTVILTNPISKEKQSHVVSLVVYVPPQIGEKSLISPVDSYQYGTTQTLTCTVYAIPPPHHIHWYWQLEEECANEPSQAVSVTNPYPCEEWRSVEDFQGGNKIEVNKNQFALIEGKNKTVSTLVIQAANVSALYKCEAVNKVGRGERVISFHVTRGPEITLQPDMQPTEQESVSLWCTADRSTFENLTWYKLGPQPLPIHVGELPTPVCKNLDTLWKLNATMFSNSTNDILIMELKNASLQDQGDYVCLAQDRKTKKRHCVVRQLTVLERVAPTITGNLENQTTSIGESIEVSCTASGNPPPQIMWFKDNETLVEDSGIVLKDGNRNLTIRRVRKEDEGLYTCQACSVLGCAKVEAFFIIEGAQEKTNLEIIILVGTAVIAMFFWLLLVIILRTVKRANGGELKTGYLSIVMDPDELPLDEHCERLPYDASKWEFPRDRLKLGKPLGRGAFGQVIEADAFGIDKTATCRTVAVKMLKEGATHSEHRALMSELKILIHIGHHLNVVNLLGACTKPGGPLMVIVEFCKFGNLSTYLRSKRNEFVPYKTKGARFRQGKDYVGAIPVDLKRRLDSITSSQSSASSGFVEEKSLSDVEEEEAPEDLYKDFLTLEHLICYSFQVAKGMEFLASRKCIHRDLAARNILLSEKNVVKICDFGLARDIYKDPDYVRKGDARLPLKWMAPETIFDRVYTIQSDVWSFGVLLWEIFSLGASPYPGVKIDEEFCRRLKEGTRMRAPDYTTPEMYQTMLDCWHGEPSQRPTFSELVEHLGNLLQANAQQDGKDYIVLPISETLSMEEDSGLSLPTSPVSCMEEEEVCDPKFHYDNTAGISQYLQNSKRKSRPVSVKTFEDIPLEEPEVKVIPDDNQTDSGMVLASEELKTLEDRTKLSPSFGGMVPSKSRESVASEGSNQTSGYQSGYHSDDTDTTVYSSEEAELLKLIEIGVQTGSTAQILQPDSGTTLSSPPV
Structures can show the parent of a compound that is named as a salt.
Each entry below carries its reported IC50.

COc1cnc2c(Oc3ccc(NC(=O)c4c(C)n(C)c(C)c(-c5cccs5)c4=O)cc3)ccnc2c1	0.3 to 1 µM

response.value for "COc1cc2nccc(Oc3ccc(NC(=O)c4cnc(C)c(-c5ccoc5)c4O)cc3F)c2nc1OC" (field: IC50) = ≤ 0.1 µM

response.value for "COc1ccc2nccc(Oc3ccc(NC(=O)c4ccc(C)n(-c5ncc(F)cc5C)c4=O)cc3F)c2n1" (field: IC50) = ≤ 0.1 µM

response.value for "COc1cc2nccc(Oc3ccc(NC(=O)c4cccn(-c5ccncc5)c4=O)cc3F)c2nc1OC" (field: IC50) = ≤ 0.1 µM

response.value for Cc1ccc(C(=O)Nc2ccc(Oc3ccnc4cnc(Cl)cc34)c(F)c2)c(=O)n1-c1ccc(F)cn1 [Compound 54A] (field: IC50) = 0.1 to 0.3 µM

response.value for "COc1cc2nccc(Oc3ccc(NC(=O)c4cnc(C)c(-c5ccnn5C)c4O)cc3F)c2nc1OC" (field: IC50) = ≤ 0.1 µM

response.value for "COc1ccc2nccc(Oc3ccc(NC(=O)c4cnc(C)c(-c5ccco5)c4O)cc3F)c2n1" (field: IC50) = ≤ 0.1 µM

response.value for COc1cc2nccc(Oc3ccc(NC(=O)c4cccn(-c5ccnc(O)c5)c4=O)cc3F)c2nc1OC [Compound 248, hydrochloride] (field: IC50) = 0.3 to 1 µM

response.value for "COc1cc2nccc(Oc3ccc(NC(=O)c4c(C)n(C)c(C)c(-c5coc6ccccc56)c4=O)cc3F)c2nc1OC" (field: IC50) = 0.3 to 1 µM

---

measured.target: AXL (Homo sapiens, UniProt P30530)
Construct: endogenous in cells
Sequence (P30530 26-894): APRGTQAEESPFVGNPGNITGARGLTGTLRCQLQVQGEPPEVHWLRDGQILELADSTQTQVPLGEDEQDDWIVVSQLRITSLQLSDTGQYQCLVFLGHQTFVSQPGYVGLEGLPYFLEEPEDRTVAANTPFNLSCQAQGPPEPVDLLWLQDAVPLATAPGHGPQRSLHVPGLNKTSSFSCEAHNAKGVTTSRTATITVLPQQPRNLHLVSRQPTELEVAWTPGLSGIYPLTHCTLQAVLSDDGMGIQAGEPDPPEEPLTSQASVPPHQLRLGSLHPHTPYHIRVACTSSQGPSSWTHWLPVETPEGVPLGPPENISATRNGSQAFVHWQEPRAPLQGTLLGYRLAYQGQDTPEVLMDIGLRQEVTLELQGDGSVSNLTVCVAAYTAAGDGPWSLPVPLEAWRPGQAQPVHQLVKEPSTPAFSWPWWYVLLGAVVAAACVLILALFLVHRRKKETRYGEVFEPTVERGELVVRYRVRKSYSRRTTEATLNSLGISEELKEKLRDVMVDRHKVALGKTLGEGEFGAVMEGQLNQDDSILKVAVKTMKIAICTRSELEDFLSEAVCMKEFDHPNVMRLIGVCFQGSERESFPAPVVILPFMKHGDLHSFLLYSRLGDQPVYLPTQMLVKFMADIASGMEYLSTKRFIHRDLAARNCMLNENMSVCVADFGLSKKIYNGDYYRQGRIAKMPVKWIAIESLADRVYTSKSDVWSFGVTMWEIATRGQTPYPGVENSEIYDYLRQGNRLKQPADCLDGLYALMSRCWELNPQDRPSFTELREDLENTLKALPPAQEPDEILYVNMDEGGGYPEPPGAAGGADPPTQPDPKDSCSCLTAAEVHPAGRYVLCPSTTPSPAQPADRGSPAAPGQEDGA
experiment: AXL autophosphorylation ELISA in A-172 cells
condition.parameters: Table 3 Cellular Activities, Gas6-stimulated, phospho-AXL ELISA
pIC50: −log10 of the molar value.
quantity.name: pIC50

COc1cc2nccc(Oc3ccc(NC(=O)c4c(C)nc(C)c(-c5ccoc5)c4O)cc3F)c2nc1OC [Compound 112]	≥ 7.00
COc1cc2nccc(Oc3ccc(NC(=O)c4ccc(C)n(-c5ccc(F)cn5)c4=O)cc3)c2nc1OC [Compound 44]	≥ 7.00
COc1cnc2c(Oc3ccc(NC(=O)c4cnc(C)c(-c5ccc(C)s5)c4O)cc3F)ccnc2c1 [Compound 101]	≥ 7.00
CCOc1ccn(-c2ccc(F)cn2)c(=O)c1C(=O)Nc1ccc(Oc2ccnc3cc(OC)c(OC)nc23)c(F)c1 [Compound 243]	≥ 7.00
COc1cc2nccc(Oc3ccc(NC(=O)c4ccc(C)n(-c5cccnc5)c4=O)cc3F)c2nc1OC [Compound 222]	≥ 7.00
COc1cc2nccc(Oc3ccc(NC(=O)c4cnc(C)c(-c5cc(C)cs5)c4O)cc3F)c2nc1OC [Compound 91]	≥ 7.00
COc1cnc2c(Oc3ccc(NC(=O)c4cnc(C)c(-c5cccs5)c4O)cc3)ccnc2c1 [Compound 257]	≥ 7.00
COc1cc2nccc(Oc3ccc(NC(=O)c4c(C)nc(C)c(-c5ccc(F)cn5)c4O)cc3F)c2nc1OC [Compound 218]	≥ 7.00
COc1cnc2c(Oc3ccc(NC(=O)c4cc(C(C)=O)c(C)n(-c5ccco5)c4=O)cc3F)ccnc2c1 [Compound 238]	6.52 to 7.00
COc1cc2nccc(Oc3ccc(NC(=O)c4ccc(C)n(-c5ccncc5)c4=O)cc3F)c2nc1OC [Compound 221]	≥ 7.00

Continue with the compound presented below.
response.value for COc1cnc2c(Oc3ccc(NC(=O)c4cnc(C)c(-c5ccco5)c4O)cc3F)ccnc2c1 [Compound 96] (field: pIC50) = ≥ 7.00

---

measured.target: KDR (Homo sapiens, UniProt P35968)
experiment: Human KDR kinase assay (HTRF KinEase)
Format: biochemical
Set-up: Human KDR (residues 790-1356; CarnaBio, 0.1 ng/ well); purchased CarnaBio
condition.parameters: Table 2 Biological Activities, ATP at Km (4.0 μM)
Sequence (P35968 790-1356): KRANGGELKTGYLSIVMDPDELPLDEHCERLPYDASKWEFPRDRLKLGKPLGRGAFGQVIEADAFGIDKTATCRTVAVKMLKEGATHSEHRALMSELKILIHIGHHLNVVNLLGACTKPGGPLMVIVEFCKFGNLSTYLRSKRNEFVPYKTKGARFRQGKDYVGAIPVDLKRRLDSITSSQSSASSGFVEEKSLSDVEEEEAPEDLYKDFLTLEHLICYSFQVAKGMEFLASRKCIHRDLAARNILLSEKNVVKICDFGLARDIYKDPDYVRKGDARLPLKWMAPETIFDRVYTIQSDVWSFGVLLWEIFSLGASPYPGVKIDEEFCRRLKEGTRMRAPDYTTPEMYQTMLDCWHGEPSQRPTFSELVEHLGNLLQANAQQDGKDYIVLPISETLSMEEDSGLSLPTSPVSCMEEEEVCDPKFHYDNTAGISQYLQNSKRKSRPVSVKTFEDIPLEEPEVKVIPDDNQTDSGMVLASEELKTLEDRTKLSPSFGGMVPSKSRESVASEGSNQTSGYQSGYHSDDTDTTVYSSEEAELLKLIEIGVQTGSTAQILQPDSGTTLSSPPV
quantity.name: IC50

Here's what some known entries look like.
COc1cc2nccc(Oc3ccc(NC(=O)c4c(C)ncc(-c5ccccn5)c4O)cc3F)c2nc1OC	≤ 0.1 µM
COc1cc2nccc(Oc3ccc(NC(=O)c4ccc(C)n(-c5ccc(F)cn5)c4=O)cc3F)c2nc1OC	≤ 0.1 µM

response.value for "COc1cc2nccc(Oc3ccc(NC(=O)c4cnc(C)c(-c5ccc(F)cn5)c4O)cc3F)c2nc1OC" (field: IC50) = ≤ 0.1 µM

response.value for "COc1cnc2c(Oc3ccc(NC(=O)c4ccc(C)n(-c5ccc(F)cn5)c4=O)cc3F)ccnc2c1" (field: IC50) = 0.1 to 0.3 µM

response.value for "COc1cc2nccc(Oc3ccc(NC(=O)c4c(C)ncc(-c5ccc(F)cn5)c4O)cc3F)c2nc1OC" (field: IC50) = ≤ 0.1 µM

response.value for "COc1cc2nccc(Oc3ccc(NC(=O)c4cc(C#N)c(C)n(-c5ccc(F)cn5)c4=O)cc3F)c2nc1OC" (field: IC50) = 0.3 to 1 µM

response.value for "COc1cnc2c(Oc3ccc(NC(=O)c4c(C)n(C)cc(-c5ccc(F)cn5)c4=O)cc3F)ccnc2c1" (field: IC50) = 0.3 to 1 µM
